- System: HL-60
- Test protocol: cell viability (% survival relative to DMSO control, bortezomib = 0%); higher = less cytotoxic
- Condition context: 1 nM; 72 h
Metric: cell viability (%)
// units = %; emit number, no label

# count of solved cases: 7
compound=CN(CCCOc1ccc(Cc2ccccc2)cc1)CCC(=O)O metric="cell viability" experimental_value=99.9
compound="CN(Cc1cnc2nc(N)nc(N)c2n1)c1ccc(C(=O)N[C@@H](CCC(=O)O)C(=O)O)cc1 [Methotrexate]" metric="cell viability" experimental_value=81.5
compound="O=c1cc(-c2ccccc2)oc2c1ccc1ccccc12 [Alpha-Naphtoflavone]" metric="cell viability" experimental_value=118
compound="CC[C@H](C)[C@H](N)C(=O)N1CCSC1 [P32/98]" metric="cell viability" experimental_value=88.1
compound="CC(C)CC(=O)N[C@H](C(=O)N[C@H](C(=O)N[C@@H](CC(C)C)[C@@H](O)CC(=O)N[C@@H](C)C(=O)N[C@@H](CC(C)C)[C@@H](O)CC(=O)O)C(C)C)C(C)C [Pepstatin A]" metric="cell viability" experimental_value=99.7
compound="CC/C=C\\C[C@H]1C(=O)CC[C@@H]1CC(=O)OC [Methyl jasmonate]" metric="cell viability" experimental_value=92.7
compound="CCCCCOC(=O)Nc1nc(=O)n([C@@H]2O[C@H](C)[C@@H](O)[C@H]2O)cc1F [Capecitabine]" metric="cell viability" experimental_value=104

Pending compound:
Query :: Which cell viability is reported for this compound? CCc1oc2ccccc2c1C(=O)c1cc(Br)c(O)c(Br)c1 [Benzbromarone]
Result :: 88.5

Data credit: the supplement of paper PMC8671470
